Consider the following compounds; for each one, report its MIC.
System: Staph.aureus 0119
Assay: MIC on Staph.aureus 0119 (macrolide-resistant A group)
Format: cell-based
Conditions: Staphylococcus aureus, 0119
Give bare numbers, in µg/mL.

>  <Compound>
CCCC(=O)OC1C(C)OC(OC2C(C)OC(OC3C(CC=O)CC(C)C(=O)C=CC(C)=CC(COC4OC(C)C(O)C(OC)C4OC)C(CC)OC(=O)CC(O)C3C)C(O)C2N(C)C)CC1(C)OC(=O)CC (stereo not shown)

>  <Test System>
Staph.aureus 0119

>  <Unit String>
µg/mL

>  <MIC>
12.5

$$$$
>  <Compound>
CCCC(=O)OC1C(C)OC(OC2C(C)OC(OC3C(CC=O)CC(C)C(=O)C=CC(C)=CC(COC4OC(C)C(O)C(OC)C4OC)C(CC)OC(=O)CC(O)C3C)C(O)C2N(C)C)CC1(C)OC(=O)CCC (stereo not shown)

>  <Test System>
Staph.aureus 0119

>  <Unit String>
µg/mL

>  <MIC>
12.5

$$$$
>  <Compound>
CCCCCC(=O)OC1C(C)OC(OC2C(C)OC(OC3C(CC=O)CC(C)C(=O)C=CC(C)=CC(COC4OC(C)C(O)C(OC)C4OC)C(CC)OC(=O)CC(O)C3C)C(O)C2N(C)C)CC1(C)OC(C)=O (stereo not shown)

>  <Test System>
Staph.aureus 0119

>  <Unit String>
µg/mL

>  <MIC>
12.5

$$$$

Bench note: what MIC did CCCC(=O)OC1C(C)OC(OC2C(C)OC(OC3C(CC=O)CC(C)C(=O)C=CC(C)=CC(COC4OC(C)C(O)C(OC)C4OC)C(CC)OC(=O)CC(O)C3C)C(O)C2N(C)C)CC1(C)OC(C)=O (stereo not shown) show?
12.5

###

Tested on: Staph.aureus 0116
Assay: MIC on Staph.aureus 0116 (macrolide-resistant A group)
Type: cell-based
Conditions: Staphylococcus aureus; Staph.aureus 0116, erythromycin, oleandomycin, 16-membered macrolide resistant clinical isolate; read-out: MIC
Property Name: MIC (µg/mL)
Numbers only, in µg/mL.

Quick one: give me MIC for each item below, same order please.
1. CCC(=O)OC1C(C)OC(OC2C(C)OC(OC3C(CC=O)CC(C)C(=O)C=CC(C)=CC(COC4OC(C)C(O)C(OC)C4OC)C(CC)OC(=O)CC(O)C3C)C(O)C2N(C)C)CC1(C)OC(C)=O (stereo not shown)
2. CCCC(=O)OC1C(C)OC(OC2C(C)OC(OC3C(CC=O)CC(C)C(=O)C=CC(C)=CC(COC4OC(C)C(O)C(OC)C4OC)C(CC)OC(=O)CC(O)C3C)C(O)C2N(C)C)CC1(C)OC(=O)CC (stereo not shown)
3. CCC1OC(=O)CC(O)C(C)C(OC2OC(C)C(OC3CC(C)(OC(=O)CC(C)C)C(OC(C)=O)C(C)O3)C(N(C)C)C2O)C(CC=O)CC(C)C(=O)C=CC(C)=CC1COC1OC(C)C(O)C(OC)C1OC (stereo not shown)

1: 6.3; 2: 6.3; 3: 6.3
